test system: Blood; test: Dose normalized AUC (0 to 7 hrs) in Han-Wistar SOA rat model blood at 2 mg/kg administered via oral gavage by UPLC/MS/MS analysis; assay type: ADME, organism-based; settings: in vivo
Parameter Measured: AUC/dose (ng·h/mL/mg/kg)
The reply should contain only the number, in ng·h/mL/mg/kg.

// solved cases for AUC/dose follow
## Task Entry under review: "CC1=CCC[C@H]1NC(=O)Nc1ccc(Cl)c(S(=O)(=O)[C@@]2(C)CCOC2)c1O" . Reported AUC/dose?
## Result 651

## Task What AUC/dose value was documented for this molecule, "CC1=CCC[C@H]1NC(=O)Nc1ccc(Cl)c(S(=O)(=O)C(C)(C)CF)c1O" ?
## Result 614

---
## Task Given the molecule "CC1=CCC[C@H]1NC(=O)Nc1ccc(Cl)c(S(=O)(=O)C(C)(F)F)c1O" , what is its reported AUC/dose?
## Result 4331

## Task Bench note: what AUC/dose did "CC1=CCC[C@H]1NC(=O)Nc1ccc(C#N)c(S(=O)(=O)C(C)(C)C)c1O" show?
## Result 2575

## Task May I ask what AUC/dose has been recorded for "CC1=CCC[C@H]1NC(=O)Nc1ccc(Cl)c(S(=O)(=O)C(C)(C)[C@H]2CCOC2)c1O" ?
## Result 63.8

## Task Look up AUC/dose: "CC1=CCC[C@H]1NC(=O)Nc1ccc(Cl)c(S(=O)(=O)[C@]2(C)CCOC2)c1O"
## Result 788

## Task Which value of AUC/dose has been reported for "CC1=CCC[C@H]1NC(=O)Nc1ccc(Cl)c(S(=O)(=O)[C@H]2C[C@H](N3CCCC3)C2)c1O" in the records?
## Result 11721

## Task # get_value(readout='AUC/dose', item= "CC1=CCC[C@H]1NC(=O)Nc1ccc(Cl)c(S(=O)(=O)[C@H]2C[C@H](N(C)C)C2)c1O" )
## Result 2580

## Task # query: AUC/dose of entry "CC1=CCC[C@H]1NC(=O)Nc1ccc(Cl)c(S(=O)(=O)C(C)(C)C(F)(F)F)c1O"
## Result 535

----------
target: C-X-C chemokine receptor type 2 (Homo sapiens); test: Antagonist activity at TEV protease cleavage site linked GAL4-VP16-fused recombinant human CXCR2 expressed in cells assessed as inhibition of […] human CXCL1-stimulated beta-arrestin recruitment by CCF4-AM-fluorescence based FRET assay; format: cell-based; settings: read-out: pIC50 (converted)
Sequence (P25025 whole entry, the tested form may be a part): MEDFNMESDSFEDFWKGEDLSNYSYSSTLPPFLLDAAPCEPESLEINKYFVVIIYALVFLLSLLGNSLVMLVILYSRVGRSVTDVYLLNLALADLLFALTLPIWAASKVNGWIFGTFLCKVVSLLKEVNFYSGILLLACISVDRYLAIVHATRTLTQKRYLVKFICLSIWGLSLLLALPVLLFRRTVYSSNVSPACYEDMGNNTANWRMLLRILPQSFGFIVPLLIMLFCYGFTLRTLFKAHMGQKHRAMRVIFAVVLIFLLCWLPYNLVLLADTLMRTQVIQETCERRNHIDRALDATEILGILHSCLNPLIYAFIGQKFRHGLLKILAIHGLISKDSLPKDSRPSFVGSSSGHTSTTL
IC50 strictly less than 4 nM = 1. Otherwise -1.

Below, 5 compounds whose answers are already recorded.
## Task hey, is IC50 for "CC1=CCC[C@H]1NC(=O)Nc1ccc(Cl)c(S(=O)(=O)C(C)(C)C(F)(F)F)c1O" lower than 4 nM or not?
## Result 1

## Task Hello, is IC50 of the following compound strictly smaller than 4 nM? "CC(C)(CO)S(=O)(=O)c1c(Cl)ccc(NC(=O)N[C@H]2CCC=C2Cl)c1O"
## Result -1

## Task Just wondering, is IC50 of CCC1CCCC1NC(=O)Nc1ccc(Cl)c(S(=O)(=O)C(C)C)c1O (racemic) below 4 nM?
## Result -1

## Task is_below(IC50, 4 nM) for CC1=CCC[C@H]1NC(=O)Nc1ccc(Cl)c(S(=O)(=O)C2CCCOC2)c1O (some centres undefined) ?
## Result 1

## Task Given the entry "CC1=CCC[C@H]1NC(=O)Nc1ccc(C#N)c(S(=O)(=O)C(C)(C)CC(F)(F)F)c1O" , would its reported IC50 be below 4 nM?
## Result 1

Others:
## Task For this compound, is IC50 lower than 4 nM? "CC1=CCC[C@H]1NC(=O)Nc1ccc(Cl)c(S(=O)(=O)C(C)(C)C2CCOCC2)c1O"
## Result 1

## Task Input CC1=CCCCC1NC(=O)Nc1ccc(Cl)c(S(=O)(=O)C(C)C)c1O (racemic) ; condition: IC50 strictly below 4 nM. Does it hold?
## Result -1

## Task hey, is IC50 for "CC1=CCC[C@H]1NC(=O)Nc1ccc(Cl)c(S(=O)(=O)C2(C)CCOCC2)c1O" lower than 4 nM or not?
## Result 1

----------
assay: Unbound brain-to-blood concentration ratio in Han-Wistar SOA rat model at 2 mg/kg administered via oral gavage by UPLC/MS/MS analysis; type: ADME, organism-based; conditions: read-out: K(p,uu,brain)
Where Kp uu equals or exceeds 0.5, the correct label is Criterion met; where it does not, the label is Criterion not met.

## Task Is reported Kp uu greater than or equal to 0.5 here: "CC1=CCC[C@H]1NC(=O)Nc1ccc(Cl)c(S(=O)(=O)C(C)(C)CF)c1O"
## Result Criterion not met

## Task Is the recorded value of Kp uu equal to or greater than 0.5 for this molecule? "CC1=CCC[C@H]1NC(=O)Nc1ccc(Cl)c(S(=O)(=O)[C@@]2(C)CCOC2)c1O"
## Result Criterion met

## Task Check this molecule for Kp uu at or above 0.5: "CC1=CCC[C@H]1NC(=O)Nc1ccc(Cl)c(S(=O)(=O)[C@]2(C)CCOC2)c1O"
## Result Criterion not met

## Task Is reported Kp uu greater than or equal to 0.5 here: "CC1=CCC[C@H]1NC(=O)Nc1ccc(Cl)c(S(=O)(=O)C(C)(C)C(F)(F)F)c1O"
## Result Criterion met

Now examine the next entry.
## Task Identify whether the reported Kp uu of the following molecule is 0.5 or greater: "CC1=CCC[C@H]1NC(=O)Nc1ccc(Cl)c(S(=O)(=O)C(C)(C)[C@H]2CCOC2)c1O"
## Result Criterion not met

----------
experiment: Tmax in Wistar rat at 2.41 mg/kg, po measured up to 4 hrs post dose; format: ADME, organism-based; conditions: in vivo
Parameter Measured: Tmax (h)
Please state the figure in h; there is no need to write the unit.

## Task Give the measured Tmax of "CC1=CCC[C@H]1NC(=O)Nc1ccc(Cl)c(S(=O)(=O)[C@@]2(C)CCOC2)c1O" .
## Result 1

----------
Molecular target: C-X-C chemokine receptor type 3 (Homo sapiens, UniProt P49682)
Sequence (P49682 whole entry): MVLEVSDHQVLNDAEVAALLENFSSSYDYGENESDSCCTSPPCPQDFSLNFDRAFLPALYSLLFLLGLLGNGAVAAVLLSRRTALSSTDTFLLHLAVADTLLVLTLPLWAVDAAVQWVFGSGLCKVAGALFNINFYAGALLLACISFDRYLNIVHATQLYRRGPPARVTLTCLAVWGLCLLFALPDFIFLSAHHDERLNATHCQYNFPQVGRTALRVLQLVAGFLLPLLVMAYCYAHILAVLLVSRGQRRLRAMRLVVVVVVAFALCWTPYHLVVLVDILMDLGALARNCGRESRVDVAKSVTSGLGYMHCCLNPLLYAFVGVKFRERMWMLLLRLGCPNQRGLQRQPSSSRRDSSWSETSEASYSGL
Parameter Measured: IC50

## Task For the molecule "CC1=CCC[C@H]1NC(=O)Nc1ccc(Cl)c(S(=O)(=O)[C@@]2(C)CCOC2)c1O" , what IC50 is on record?
## Result > 10 µM

----------
assay: Clearance in dog blood at 0.85 mg/kg, iv measured up to 4 hrs post dose; type: ADME, organism-based, Canis lupus familiaris
Parameter Measured: clearance (mL/min/kg)
Kindly answer with a numeric value in mL/min/kg, unit omitted.

## Task // clearance lookup, key: "CC1=CCC[C@H]1NC(=O)Nc1ccc(Cl)c(S(=O)(=O)[C@@]2(C)CCOC2)c1O"
## Result 5.6

----------
Each record here notes measured IC50.
molecular target: C-X-C chemokine receptor type 2 (Homo sapiens); assay: Antagonist activity at TEV protease cleavage site linked GAL4-VP16-fused recombinant human CXCR2 expressed in cells assessed as inhibition of […] human CXCL1-stimulated beta-arrestin recruitment by CCF4-AM-fluorescence based FRET assay; format: cell-based; details: read-out: pIC50 (converted)
Your answer should be a plain number; it is taken to be in nM.

## Task Which IC50 is reported with C-X-C chemokine receptor type 2 (Homo sapiens) for this entry: CC1=C(F)CCC1NC(=O)Nc1ccc(Cl)c(S(=O)(=O)C(C)C)c1O (racemic) ?
## Result 1.58

## Task Give IC50 (C-X-C chemokine receptor type 2 (Homo sapiens)) of the following compound: CC(C)S(=O)(=O)c1c(Cl)ccc(NC(=O)NC2CCC3CC32)c1O (stereo not given)
## Result 25.1

## Task Record COCC(C)S(=O)(=O)c1c(Cl)ccc(NC(=O)N[C@@H]2CCC=C2C)c1O (stereo not given in full) : what is its IC50 with C-X-C chemokine receptor type 2 (Homo sapiens)?
## Result 1.26

Now look at this entry.
## Task Hello, I am looking for reported IC50 with C-X-C chemokine receptor type 2 (Homo sapiens) for CC1=CCC[C@H]1NC(=O)Nc1ccc(Cl)c(S(=O)(=O)C2(C)CCCOC2)c1O (stereo not given in full) . Could you help?
## Result 2
